- STUDY TARGET: Cytochrome P450 1A2 (Homo sapiens, UniProt P05177)
- Sequence (P05177 whole entry): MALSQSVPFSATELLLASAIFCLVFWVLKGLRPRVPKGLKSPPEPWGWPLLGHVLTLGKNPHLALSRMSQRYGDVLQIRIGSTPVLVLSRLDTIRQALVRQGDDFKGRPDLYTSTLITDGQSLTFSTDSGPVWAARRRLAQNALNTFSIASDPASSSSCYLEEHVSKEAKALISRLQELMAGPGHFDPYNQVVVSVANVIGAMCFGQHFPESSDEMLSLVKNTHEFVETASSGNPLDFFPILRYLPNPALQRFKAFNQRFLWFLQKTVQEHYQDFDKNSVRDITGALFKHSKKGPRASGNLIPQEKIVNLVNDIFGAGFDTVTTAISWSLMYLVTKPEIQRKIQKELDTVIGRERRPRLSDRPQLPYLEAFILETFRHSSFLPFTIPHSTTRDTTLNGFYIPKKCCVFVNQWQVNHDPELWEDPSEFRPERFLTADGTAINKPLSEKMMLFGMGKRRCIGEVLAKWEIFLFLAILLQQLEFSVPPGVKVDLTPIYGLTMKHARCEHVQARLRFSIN
OBSERVABLE: IC50
Mention the unit after the number when you answer.

Looking up "COc1ccc2c3c([nH]c2c1)[C@@H]1N(CC3)C(=O)c2c(OC)cccc2N1C" , I see its IC50 listed as 10 µM

====

- PROTOCOL SUMMARY: Oral bioavailability in Sprague-Dawley rat at 5 mg/kg after 24 hrs by LC-MS/MS analysis
- Type: ADME, organism-based
- MEASUREMENT CONDITIONS: in vivo
OBSERVABLE: bioavailability

// field: bioavailability; key: "COc1ccc2c3c([nH]c2c1)[C@@H]1N(CC3)C(=O)c2c(OC)cccc2N1C" ; value = 14%

====

- STUDY TARGET: Cytochrome P450 2B6 (Homo sapiens, UniProt P20813)
- Sequence (P20813 whole entry): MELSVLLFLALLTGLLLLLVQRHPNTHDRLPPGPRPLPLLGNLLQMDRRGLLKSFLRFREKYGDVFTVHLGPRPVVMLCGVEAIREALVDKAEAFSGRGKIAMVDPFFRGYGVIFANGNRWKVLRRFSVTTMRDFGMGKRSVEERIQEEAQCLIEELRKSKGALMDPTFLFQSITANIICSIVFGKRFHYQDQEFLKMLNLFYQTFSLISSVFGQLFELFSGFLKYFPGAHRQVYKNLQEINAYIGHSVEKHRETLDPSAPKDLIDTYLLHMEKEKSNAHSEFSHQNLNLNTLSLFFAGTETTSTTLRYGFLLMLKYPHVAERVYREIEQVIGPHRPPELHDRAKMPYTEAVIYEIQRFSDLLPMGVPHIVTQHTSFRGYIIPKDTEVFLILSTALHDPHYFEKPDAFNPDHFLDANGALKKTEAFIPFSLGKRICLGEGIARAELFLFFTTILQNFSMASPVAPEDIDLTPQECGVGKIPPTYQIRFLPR
OBSERVABLE: IC50 (µM)
Form entry: value (µM) — number only.

Cytochrome P450 2B6 (Homo sapiens, UniProt P20813) assay, compound "COc1ccc2c3c([nH]c2c1)[C@@H]1N(CC3)C(=O)c2c(OC)cccc2N1C" , recorded IC50 = 10

====

- STUDY TARGET: Voltage-gated inwardly rectifying potassium channel KCNH2 (Homo sapiens, UniProt Q12809)
- Sequence (Q12809 whole entry): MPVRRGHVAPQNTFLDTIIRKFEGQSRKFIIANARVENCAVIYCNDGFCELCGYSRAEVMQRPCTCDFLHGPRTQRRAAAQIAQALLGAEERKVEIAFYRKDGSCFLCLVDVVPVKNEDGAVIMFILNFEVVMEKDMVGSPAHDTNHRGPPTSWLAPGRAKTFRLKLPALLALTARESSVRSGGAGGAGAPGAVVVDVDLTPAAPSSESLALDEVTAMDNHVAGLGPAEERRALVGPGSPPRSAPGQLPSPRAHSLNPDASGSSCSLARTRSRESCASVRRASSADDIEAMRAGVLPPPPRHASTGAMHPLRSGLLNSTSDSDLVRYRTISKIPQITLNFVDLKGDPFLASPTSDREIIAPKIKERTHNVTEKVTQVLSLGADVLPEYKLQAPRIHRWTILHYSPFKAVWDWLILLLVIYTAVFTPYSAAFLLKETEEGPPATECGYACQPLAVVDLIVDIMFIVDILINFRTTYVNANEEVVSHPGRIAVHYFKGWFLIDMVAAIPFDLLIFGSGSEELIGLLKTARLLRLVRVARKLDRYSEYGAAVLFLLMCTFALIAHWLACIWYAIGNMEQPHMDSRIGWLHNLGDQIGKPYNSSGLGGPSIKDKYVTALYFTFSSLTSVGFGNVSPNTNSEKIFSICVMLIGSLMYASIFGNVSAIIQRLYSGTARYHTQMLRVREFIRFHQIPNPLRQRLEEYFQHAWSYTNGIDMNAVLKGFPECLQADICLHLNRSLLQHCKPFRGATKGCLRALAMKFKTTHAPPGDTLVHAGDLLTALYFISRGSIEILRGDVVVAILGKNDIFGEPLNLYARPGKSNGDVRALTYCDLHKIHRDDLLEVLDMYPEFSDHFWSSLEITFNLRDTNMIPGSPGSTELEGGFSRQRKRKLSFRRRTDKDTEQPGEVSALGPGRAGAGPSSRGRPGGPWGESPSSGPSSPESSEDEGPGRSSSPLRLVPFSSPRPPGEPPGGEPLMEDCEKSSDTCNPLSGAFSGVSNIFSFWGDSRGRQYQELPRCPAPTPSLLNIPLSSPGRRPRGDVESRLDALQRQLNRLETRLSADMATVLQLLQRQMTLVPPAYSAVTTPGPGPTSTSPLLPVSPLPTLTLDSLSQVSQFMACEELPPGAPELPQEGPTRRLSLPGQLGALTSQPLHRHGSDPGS
- PROTOCOL SUMMARY: Inhibition of human ERG expressed in CHO cells by patch-clamp electrophysiology method
- Type: cell-based
OBSERVABLE: IC50 (µM)
Give your result in µM as a bare value.

Form field IC50, entry "COc1ccc2c3c([nH]c2c1)[C@@H]1N(CC3)C(=O)c2c(OC)cccc2N1C" : 20
